# Test System: HCMV polymerase (Human cytomegalovirus)
# Construct: made in house; host or cells: recombinant baculovirus-infected SF-9 cells
# Measurement Protocol: HCMV polymerase scintillation proximity assay (SPA)
# Type: biochemical
# Measurement Setup: HCMV polymerase, SPA; read-out: Polymerase IC50 HCMV
The entries below come with measured pIC50 values attached.
Remember the convention: pIC50 equals -log10 of concentration in molar.

Q: pIC50 lookup needed for CN(Cc1cc2c(=O)c(C(=O)NCc3ccc(Cl)cc3)cn(CCO)c2s1)C[C@@H](O)c1ccccn1 [Example 20] , thanks.
A: 5.94

====

# Test System: HCMV polymerase (Human cytomegalovirus, UniProt P08546)
# Construct: made in house; host or cells: recombinant baculovirus-infected SF-9 cells
# Sequence (P08546 whole entry): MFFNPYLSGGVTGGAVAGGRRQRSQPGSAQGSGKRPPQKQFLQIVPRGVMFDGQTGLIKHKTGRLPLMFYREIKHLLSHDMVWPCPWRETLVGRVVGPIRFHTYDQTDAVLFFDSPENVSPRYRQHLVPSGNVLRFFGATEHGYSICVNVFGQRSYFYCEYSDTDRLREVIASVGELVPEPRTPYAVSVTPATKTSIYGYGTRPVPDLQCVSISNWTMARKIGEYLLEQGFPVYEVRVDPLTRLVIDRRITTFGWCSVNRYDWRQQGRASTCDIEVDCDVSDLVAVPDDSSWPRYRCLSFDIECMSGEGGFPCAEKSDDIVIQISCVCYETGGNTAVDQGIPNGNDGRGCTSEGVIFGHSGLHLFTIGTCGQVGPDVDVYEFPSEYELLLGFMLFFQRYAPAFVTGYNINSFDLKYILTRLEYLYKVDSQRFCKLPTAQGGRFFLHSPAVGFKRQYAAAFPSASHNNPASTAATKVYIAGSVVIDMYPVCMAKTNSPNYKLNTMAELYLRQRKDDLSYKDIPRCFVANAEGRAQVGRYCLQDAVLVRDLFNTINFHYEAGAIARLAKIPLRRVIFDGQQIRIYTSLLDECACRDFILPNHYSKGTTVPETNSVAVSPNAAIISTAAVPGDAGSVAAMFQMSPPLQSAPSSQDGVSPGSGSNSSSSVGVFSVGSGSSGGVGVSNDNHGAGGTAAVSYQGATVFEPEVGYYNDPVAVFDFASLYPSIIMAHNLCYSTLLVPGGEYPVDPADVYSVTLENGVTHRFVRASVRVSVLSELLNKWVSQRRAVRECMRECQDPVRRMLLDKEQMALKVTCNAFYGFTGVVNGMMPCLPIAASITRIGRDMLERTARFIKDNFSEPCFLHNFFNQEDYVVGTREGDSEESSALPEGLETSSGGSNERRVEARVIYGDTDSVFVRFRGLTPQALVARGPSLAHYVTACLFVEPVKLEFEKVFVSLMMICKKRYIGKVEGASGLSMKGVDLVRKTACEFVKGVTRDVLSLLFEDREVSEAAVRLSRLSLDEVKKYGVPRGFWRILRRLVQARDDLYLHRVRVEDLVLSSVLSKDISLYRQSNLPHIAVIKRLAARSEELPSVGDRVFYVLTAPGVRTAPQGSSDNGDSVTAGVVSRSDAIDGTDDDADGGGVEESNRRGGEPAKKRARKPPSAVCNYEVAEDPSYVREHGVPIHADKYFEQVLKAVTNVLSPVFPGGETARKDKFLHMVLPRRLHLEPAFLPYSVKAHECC
# Measurement Protocol: HCMV polymerase scintillation proximity assay (SPA)
# Assay type: biochemical
# Measurement Setup: HCMV polymerase, SPA; read-out: Polymerase IC50 HCMV
The entries below come with measured pIC50 values attached.
Remember the convention: pIC50 equals -log10 of concentration in molar.

Some entries whose results are on file:
{"columns": ["Compound", "Measured Quantity", "Measured"],
 "data": [
  ["CN(Cc1cc2c(=O)c(C(=O)NCc3ccc(Cl)cc3)cn(C)c2s1)CC(O)c1cnccn1 (racemic) [Example 10]", "pIC50", 6.96],
  ["CN(Cc1cc2c(=O)c(C(=O)NCc3ccc(Cl)cc3)cn(C)c2s1)C[C@@H](O)c1ccccn1 [Example 5]", "pIC50", 7.22],
  ["CN(Cc1cc2c(=O)c(C(=O)NCc3ccc(Cl)cc3)cn(C)c2s1)C[C@@H](O)c1cnccn1 [Example 11]", "pIC50", 7.40]
]}

Moving on to another compound below.
Q: pIC50 lookup needed for CN(Cc1cc2c(=O)c(C(=O)NCc3ccc(Cl)cc3)cn(C)c2s1)CC(O)c1cccnc1 (racemic) [Example 1] , thanks.
A: 6.80

Origin of the recorded values: patent US20040110787A1
